Hello, the source for this data is ChEMBL document CHEMBL4477260, in case you need it.

Target: Human immunodeficiency virus type 1 reverse transcriptase (Human immunodeficiency virus 1, UniProt Q72547)
endpoint: pIC50
When answering, recall that pIC50 equals minus log10 of the concentration in mol/L, and write that number alone.

Return reported pIC50. Input compound: CC(Sc1nc2cnc(Cl)nc2n1-c1cccc2ccccc12)C(=O)Nc1ccc(S(N)(=O)=O)cc1Br (stereo unspecified)
5.19

====

Test system: Human immunodeficiency virus 1
Assay: Antiviral activity against human HIV-1 3B infected in human MT4 cells assessed as protection from virus-induced cytopathic effect measured 5 days post infection by MTT assay
Type: functional, organism-based
Details: Human immunodeficiency virus 1, 3B, MT4, 120 h
Exercise: state measured pEC50 for each of the compounds provided.
When answering, recall that pEC50 equals minus log10 of the concentration in mol/L, and write that number alone.

Return reported pEC50. Input compound: COC(=O)c1ccc(NC(=O)CSc2nc3cnc(Cl)nc3n2-c2cccc3ccccc23)c(Br)c1
5.78

Return reported pEC50. Input compound: NC(=O)c1ccc(NC(=O)CSc2nc3cnc(Cl)nc3n2-c2cccc3ccccc23)c(Br)c1
5.74

Return reported pEC50. Input compound: CC(Sc1nc2cnc(Cl)nc2n1-c1ccc(C2CC2)c2ccccc12)C(=O)Nc1ccc(S(N)(=O)=O)cc1Cl (stereo not drawn)
5.39

Return reported pEC50. Input compound: CC(Sc1nc2cnc(Cl)nc2n1-c1ccc(C2CC2)c2ccccc12)C(=O)Nc1ccc(S(N)(=O)=O)cc1Br (stereo not drawn)
5.56

Return reported pEC50. Input compound: CC(Sc1nc2cnc(Cl)nc2n1-c1ccc(C2CC2)c2ccccc12)C(=O)Nc1ccc(C(N)=O)cc1Br (stereo not drawn)
5.14
